The origin of these recorded values is ChEMBL document CHEMBL1201862.

Test system: 786-0
Assay: NCI tumour cell line growth inhibition, 48 h
Active and inactive are the calls of the source. No stated cut-off is given here; in the data, active = GI50 up to about 1.1 µM and inactive = higher.
Recorded GI50 values for a group of compounds are listed next.

These recorded examples may help you get a feel for the data.
O=C(COc1ccc(Cl)c(Cl)c1)Nc1ccc[n+](Cc2ccc(S(=O)(=O)F)c(Cl)c2)c1: > 100 µM (inactive)
Cc1cccc(C(C)(C)C)c1NC(=O)/C(Cc1nc2ccc([N+](=O)[O-])cc2nc1O)=N\NC(=O)C[N+](C)(C)C: > 100 µM (inactive)
CN1CCc2c(sc3ncn(Nc4ccc(Cl)cc4)c(=N)c23)C1: > 100 µM (inactive)
BrCC(Br)(c1ccccc1)c1ccccc1-c1cc(-c2ccccc2)cc(-c2ccccc2)n1 (stereo not given): 3.64 µM (inactive)
O=c1[nH]c2c(Nc3c4ccccc4nc4ccccc34)c([N+](=O)[O-])c(Nc3c4ccccc4nc4ccccc34)c([N+](=O)[O-])c2[nH]1: 1.2 µM (inactive)
O=C(Cn1c2ccc(Br)cc2c2nc3ccccc3nc21)Nc1ccccc1: 14.3 µM (inactive)
CC(=O)C1=C(C)N(c2ccc(C)cc2)C2(O)C=CC(=O)C3C(=O)N(c4ccccc4)C(=O)C132 (stereo not given): 30.6 µM (inactive)
COC(=O)c1c(-c2cc(OC)c(OC)c(OC)c2)oc2ccccc2c1=O: > 100 µM (inactive)
Cc1sc(Nc2ccccc2[N+](=O)[O-])c(C#N)c1C: 22.6 µM (inactive)
COC(=O)/C(=C/c1ccc(OC)cc1)C(C(=O)O)=C1CCCCC1: > 100 µM (inactive)

(Q) Bench note: what GI50 did `CCOC(=O)c1c(O)nc2cccc3c2c1-c1cccnc1S3` show?
(A) 36 µM (inactive)

====

Tested on: M14
Experiment: NCI tumour cell line growth inhibition, 48 h
Calls of active or inactive are those of the source. Cut-off read from the data, not from the text of the source: active = GI50 up to about 1.1 µM and inactive = higher.
measured-parameter: GI50

For orientation, consider the following solved cases.
CCCCCCCCCCCCCCCCCC(=O)OCC(COC(=O)CCCN)OC(=O)CCCN (stereo unspecified): 16.9 µM (inactive)
Cc1cc2nnn(C3CCCCO3)c2cc1C (stereo unspecified): > 100 µM (inactive)
Cc1cc(=O)oc2cc(OCCCOc3ccc4c(C)cc(=O)oc4c3)ccc12: > 100 µM (inactive)

(Q) Give its GI50 value. Item: `COc1cc(NS(C)(=O)=O)ccc1Nc1c2ccccc2nc2ccccc12`
(A) 0.266 µM (active)

(Q) Now consider CO[C@@]12[C@H](COC(N)=O)C3=C(C(=O)C(C)=C(N)C3=O)N1C[C@H]1[C@@H]2N1C (stereo partly specified) and answer again.
(A) 0.65 µM (active)

====

# maps each entry to its GI50
Test system: LXFL 529
Assay: NCI tumour cell line growth inhibition, 48 h
Activity calls are given as the source filed them. Rule as the data show it: active = GI50 up to about 1.1 µM and inactive = higher.

// below: answered compounds
CC1=C(C(=O)Nc2ccc([N+](=O)[O-])cc2)C(c2ccc3c(c2)OCO3)C(C(=O)Nc2ccc([N+](=O)[O-])cc2)=C(C)N1: 7.96 µM (inactive)
N#Cc1cc([N+](=O)[O-])ccc1NC(=O)/C(=N/N)C(C(=O)c1ccc(Cl)c(Cl)c1)C1OC(=O)c2ccccc21 (centres undefined): 43 µM (inactive)
CC(C)(C)C1=CC(CCC(=O)Nc2ccccc2[N+](=O)[O-])=NC(S)N1 (centres undefined): > 100 µM (inactive)

Now look at this entry.
(Q) Look up GI50 for this compound: `CC[C@@H]1C[C@@H]2CN3CCc4c([nH]c5ccc(OC)cc45)C(COC(=O)c4ccc(OC)c(OC)c4)(C2)C13`
(A) 10.6 µM (inactive)
